Target: Tyrosine-protein kinase JAK2 (Homo sapiens);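 also: mean percent inhibition of JAK2 activity, from the GSK PKIS kinase panel screen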
Details: at 0.1 µM

>  <Molecule>
NS(=O)(=O)c1ccc(N/N=C2\C(=O)Nc3ccc(Cl)cc32)cc1

>  <inhibition / %>
1.28

$$$$
>  <Molecule>
O=C1Nc2ccccc2/C1=C/Nc1ccc2[nH]c(=O)[nH]c2c1

>  <inhibition / %>
1.12

$$$$
>  <Molecule>
COc1cc(Nc2nccc(-c3cnn4ncccc34)n2)cc(OC)c1

>  <inhibition / %>
1.89

$$$$
>  <Molecule>
Oc1cccc(-c2nc(-c3ccccc3)[nH]c2-c2ccncc2)c1

>  <inhibition / %>
1.43

$$$$
>  <Molecule>
FC(F)(F)c1ccc(-c2nn3ncccc3c2-c2ccnc(Nc3ccc4c(c3)OCCO4)n2)cc1

>  <inhibition / %>
-0.67

$$$$
>  <Molecule>
CN(C)C(=O)O[C@@H]1CN[C@@H](C#Cc2cc3ncnc(Nc4ccc(OCc5cccc(F)c5)c(Cl)c4)c3s2)C1

>  <inhibition / %>
0.23

$$$$
>  <Molecule>
N#Cc1cccc(Nc2nccc(-c3cnn4ncccc34)n2)c1

>  <inhibition / %>
2.15

$$$$
>  <Molecule>
O=S(=O)(CCOCc1ccc(-c2ccc3ncnc(Nc4ccc(OCc5cccc(F)c5)c(Cl)c4)c3c2)o1)c1ccccc1

>  <inhibition / %>
0.38

$$$$
>  <Molecule>
COc1ccc(-c2nn3ncccc3c2-c2ccnc(Nc3cccc(C(F)(F)F)c3)n2)cc1

>  <inhibition / %>
0.53

$$$$
>  <Molecule>
COC(=O)c1cncc(/C=C/c2c(C)cc(O)cc2C)c1

>  <inhibition / %>
0.81

$$$$
>  <Molecule>
CN(C)CCCn1c(-c2nonc2N)nc2cnccc21

>  <inhibition / %>
1.25

$$$$
>  <Molecule>
CN(C)C(=O)O[C@H]1CN[C@H](C#Cc2cc3ncnc(Nc4ccc(OCc5cccc(F)c5)c(Cl)c4)c3s2)C1

>  <inhibition / %>
1.84

$$$$
>  <Molecule>
CCCN1CCCC(c2ccc(Nc3nc(Nc4cc(F)ccc4C(N)=O)c4cc[nH]c4n3)c(OC)c2)C1 (stereo unspecified)

>  <inhibition / %>
1.82

$$$$
>  <Molecule>
CN(C)c1cc2c(Nc3ccc4c(cnn4Cc4ccccc4)c3)ncnc2cn1

>  <inhibition / %>
0.91

$$$$
>  <Molecule>
CCn1c(-c2nonc2N)nc2c(C#CC(C)(C)O)nc(OCCNC)cc21

>  <inhibition / %>
2.5

$$$$
>  <Molecule>
ON=C1CCc2cc(-c3nc(C4CCNCC4)[nH]c3-c3ccncc3)ccc21

>  <inhibition / %>
-0.01

$$$$
>  <Molecule>
CCS(=O)(=O)c1ccc(OC)c(Nc2ncc(-c3cccc(OC)c3)o2)c1

>  <inhibition / %>
0.87

$$$$
>  <Molecule>
Cc1ccc2c(-c3ccnc(Nc4ccc5c(c4)OCCO5)n3)c(-c3ccc(C(F)(F)F)cc3)nn2n1

>  <inhibition / %>
0.16

$$$$
>  <Molecule>
Cc1ccc2c(c1)/C(=N/Nc1ccc(S(N)(=O)=O)cc1)C(=O)N2

>  <inhibition / %>
-1.17

$$$$
>  <Molecule>
Cc1nc(-c2ccccc2)n2nc(NCCCN3CCOCC3)ncc12

>  <inhibition / %>
0.5

$$$$
>  <Molecule>
Cc1cc(-c2ccccn2)cc(C)c1/C=C/c1cncc(-c2nn[nH]n2)c1

>  <inhibition / %>
2.08

$$$$
>  <Molecule>
NS(=O)(=O)c1ccc(Nc2cc(-c3cccc(O)c3)n[nH]2)cc1

>  <inhibition / %>
1.41

$$$$
>  <Molecule>
COc1cccc(-n2nc(C)c3c(N/N=C(\C)c4ccncc4)ncnc32)c1

>  <inhibition / %>
-0.64

$$$$
>  <Molecule>
OCc1ccc(-c2nc(-c3ccccn3)c(-c3ccc4c(c3)OCO4)[nH]2)cc1

>  <inhibition / %>
2.17

$$$$
>  <Molecule>
NC(=O)c1cccc(Nc2nccc(Nc3cccc(F)c3)n2)c1

>  <inhibition / %>
2.34

$$$$
>  <Molecule>
O=C1Nc2ccc(-c3cccnc3)cc2C1=Cc1cc(Br)c(O)c(Br)c1

>  <inhibition / %>
1.07

$$$$
>  <Molecule>
CS(=O)(=O)Nc1cccc(-c2ccc3c(NC(=O)C4CC4)n[nH]c3c2)c1

>  <inhibition / %>
0.43

$$$$
>  <Molecule>
CC(C)c1ccc(Nc2nccc(-c3cnn4ncccc34)n2)cc1

>  <inhibition / %>
2.04

$$$$
>  <Molecule>
Nc1nccc(C#Cc2cncnc2Nc2ccc(OCc3cccc(F)c3)c(Cl)c2)n1

>  <inhibition / %>
1.73

$$$$
>  <Molecule>
Cc1ccc(O)cc1Nc1ccnc2ccc(S(C)(=O)=O)cc12

>  <inhibition / %>
1.33

$$$$
>  <Molecule>
Cc1ccc(Nc2ccnc(Nc3cccc(C(N)=O)c3)n2)cc1O

>  <inhibition / %>
5.29

$$$$
>  <Molecule>
COc1cc2ncnc(Nc3ccc(C)c(O)c3)c2cc1OC

>  <inhibition / %>
1.49

$$$$
>  <Molecule>
Cc1ccc2c(-c3ccnc(Nc4cccc(C(F)(F)F)c4)n3)c(-c3ccccc3)nn2n1

>  <inhibition / %>
1.01

$$$$
>  <Molecule>
Cc1cc(Cl)cc2c1NC(=O)C2=NNc1ccc(S(N)(=O)=O)cc1

>  <inhibition / %>
-0.3

$$$$
>  <Molecule>
CCS(=O)(=O)c1ccc(OC)c(Nc2nccc(N(C)c3ccc4c(C)n[nH]c4c3)n2)c1

>  <inhibition / %>
1.45

$$$$
>  <Molecule>
c1ccc(Nc2ncc(-c3ccccc3)o2)cc1

>  <inhibition / %>
1.08

$$$$
>  <Molecule>
Cc1ccc(NC(=O)CC2CC2)cc1-c1ccc(C(=O)NCC2CC2)cc1

>  <inhibition / %>
1.47

$$$$
>  <Molecule>
O=C(Nc1ccc(Oc2ccc3[nH]c(NC(=O)c4ccco4)nc3c2)cc1)Nc1cc(C(F)(F)F)ccc1F

>  <inhibition / %>
1.11

$$$$
>  <Molecule>
Nc1ccc(C#Cc2cncnc2Nc2ccc(OCc3cccc(F)c3)c(Cl)c2)cc1

>  <inhibition / %>
0.74

$$$$
>  <Molecule>
NS(=O)(=O)c1cccc(Nc2cc(-c3ccc(F)cc3)n[nH]2)c1

>  <inhibition / %>
0.36

$$$$
>  <Molecule>
Cc1cc(O)cc(C)c1/C=C/c1cncc(C(=O)N(C)C)c1

>  <inhibition / %>
1.7

$$$$
